Experiment: NFkB reporter suppression in cystic fibrosis bronchial cells – cell-based, uHTS hits, panel, cytotoxicity readout, dose response (AID 624344)
Details: CF bronchial epithelial cells, PAF-induced NFkB reporter inhibition; with PAF, mean of runs
Calls of active or inactive are those of the source. No rule for the calls is given here.
MEASUREMENT NAME: IC50

In [3]: df
Out[3]:
                                   compound  measurement_name  observed_measurement
0     OCCNc1nc(Nc2ccc(Cl)c(Cl)c2)nc2ccccc12              IC50               2.16 µM
1  COc1cc(C2c3cc4c(cc3CC3COC(=O)C32)OCO4)cc(OC)c1O (centres undefined)              IC50    > 79 µM (inactive)
2    O=C(NCCN1CCN(c2ccccc2)CC1)c1cccc(Br)c1              IC50               18.9 µM
3  O=S1(=O)CCC(NC(=S)SCCOc2ccccc2)C1 (centres undefined)              IC50               4.58 µM
4             CC(=O)c1c(O)cc(O)c(C(C)=O)c1O              IC50               5.34 µM
5  O=C(COC(=O)c1ccccc1C(=O)c1ccc(Cl)c([N+](=O)[O-])c1)NC1CCCCCC1              IC50                1.6 µM
6  Cc1cccc(NC(=O)c2cc(-c3ccc(C)s3)nc3ccccc23)n1              IC50               5.26 µM
7   Cn1c(SC2=CS(=O)(=O)c3ccccc32)nc2ccccc21              IC50               1.83 µM
8  COc1ccc(-c2cnc3c(NC=O)cc(-c4ccc(C(=O)N5CCOCC5)cc4)cn23)cc1OC              IC50               2.94 µM
